The values you see were collected from patent US12509430B2.

- assay_comment: Microsomal stability, mouse microsomes with NADPH and UDPGA (Phase II)
- Format: in vitro ADME
- assay_setup: mouse liver microsomes, NADPH & UDPGA, 2 μM
quantity_kind: half-life at 2 μM

>>> print(df.to_string())
                                   molecule      quantity_kind  test_result
0  CNc1cc(C)c(C(N)=O)cn1 [Compound 4, 4-methyl-6-(methylamino) nicotinamide]  half-life at 2 μM     > 4.26 h

---

- assay_comment: Microsomal stability, human microsomes with NADPH and UDPGA (Phase II)
- Assay type: in vitro ADME
- assay_setup: human liver microsomes, NADPH & UDPGA, 2 μM
quantity_kind: half-life at 2 μM

>>> df
                                   compound      quantity_kind  test_result
0  CNc1cc(C)c(C(N)=O)cn1 [Compound 4, 4-methyl-6-(methylamino) nicotinamide]  half-life at 2 μM     > 4.26 h

---

- assay_comment: Microsomal stability, human microsomes with NADPH and UDPGA (Phase II)
- Format: in vitro ADME
- assay_setup: human liver microsomes, NADPH & UDPGA
quantity_kind: microsomal CLint at 2 μM

In [3]: df
Out[3]:
                                   compound             quantity_kind       test_result
0  CNc1cc(C)c(C(N)=O)cn1 [Compound 4, 4-methyl-6-(methylamino) nicotinamide]  microsomal CLint at 2 μM  < 5.42 µL/min/mg

---

- assay_comment: In vivo pharmacokinetics, plasma concentration of inhibitor in female C57B16/N mice
- assay_setup: female, C57B16/N, mouse, plasma, po, 10 mg/kg
quantity_kind: AUC(0-t) (µg·h/mL)

>>> df
                                   molecule  quantity_kind  value_unit  test_result
0  CNc1cc(C)c(C(N)=O)cn1 [Compound 4, 4-methyl-6-(methylamino) nicotinamide]       AUC(0-t)     µg·h/mL          2.8

---

- assay_comment: Microsomal stability, human microsomes with NADPH and UDPGA (Phase II)
- Assay type: in vitro ADME
- assay_setup: human liver microsomes, NADPH & UDPGA; read-out: Scaled-up CLint
quantity_kind: CLint scaled at 2 μM

>>> print(df.to_string())
                                   compound         quantity_kind       test_result
0  CNc1cc(C)c(C(N)=O)cn1 [Compound 4, 4-methyl-6-(methylamino) nicotinamide]  CLint scaled at 2 μM  < 6.79 mL/min/kg

---

# IC50 per record follows
- tested_on: recombinant human NNMT (Homo sapiens)
- Sequence (P40261 1-264): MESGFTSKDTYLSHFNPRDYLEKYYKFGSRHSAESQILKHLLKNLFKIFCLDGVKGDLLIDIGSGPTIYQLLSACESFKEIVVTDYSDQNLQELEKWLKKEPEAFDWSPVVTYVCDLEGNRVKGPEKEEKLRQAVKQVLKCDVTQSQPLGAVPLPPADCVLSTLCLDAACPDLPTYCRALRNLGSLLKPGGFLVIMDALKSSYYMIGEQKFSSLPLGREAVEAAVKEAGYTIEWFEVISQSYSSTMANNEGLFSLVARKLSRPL
- assay_comment: in vitro NNMT enzyme inhibition assay (Promega MTase-Glo Methyltransferase Assay)
- Type: biochemical
- assay_setup: read-out: in vitro hNNMT IC50
quantity_kind: IC50 (nM)

In [3]: df
Out[3]:
                                   compound  value_unit  test_result
0  CNc1cc(C)c(C(N)=O)cn1 [Compound 4, 4-methyl-6-(methylamino) nicotinamide]          nM          240
1  CNc1cc(C)c(C(N)=O)cn1 [JBSNF-000581, reference compound]          nM          840
2                        COc1ccc(C(N)=O)cn1          nM         2400
3                    CNc1cc(Cl)c(C(N)=O)cn1          nM          673
